B1: tRNA (parent)
chain: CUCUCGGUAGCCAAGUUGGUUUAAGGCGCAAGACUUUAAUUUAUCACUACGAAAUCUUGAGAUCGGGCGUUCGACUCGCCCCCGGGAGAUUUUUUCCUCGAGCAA

Variants of: B1
METHOD_SUMMARY: nonsense suppression (GFP-seq) (ratio to wild type); higher = more function; SUP4oc tRNA, yeast GFP reporter sort-seq
Fewer inactive variants are shown than the library holds.
Attribute: nonsense suppression

| MUTATION_DESCRIPTOR | QUALIFIER_SYMBOL | nonsense suppression |
| --- | --- | --- |
| C5G G25C G69C C80A | ≤ | 0.026 |
| G10C U71A A74U A87C | ≤ | 0.026 |
| A9C C11A C75A | ≤ | 0.026 |
| C3G U20G G69A U70C | ≤ | 0.026 |
| G28A A54C | = | 0.878 |
| A30G G59C A60C | ≤ | 0.026 |
| C79U G86C | = | 0.0687 |
| U20G A54U | = | 1.04 |
| A23C G88A | ≤ | 0.026 |
| U20A G28A | = | 0.813 |
| G18A A87G | = | 0.036 |
| A9C G73A | = | 0.215 |
| C5U G66U G78A | ≤ | 0.026 |
| C1U G7A | ≤ | 0.026 |
| G73A U76A | = | 0.0803 |
| G6C U57C G65A G67A A74C G78C | ≤ | 0.026 |
| A24C U71A G78C C80A A87U | ≤ | 0.026 |
| C27G U57C G59U G86U | ≤ | 0.026 |
| A30U C68G | ≤ | 0.026 |
| G28A C34G G59A | ≤ | 0.026 |
| U4G A31G | = | 0.0398 |
| C34G U71G | ≤ | 0.026 |
| U21C G61A A62C | = | 0.0269 |
| U2C A13U | = | 0.0357 |
| G28C C64U | = | 0.0765 |
| C1U C3A U8A U17C | ≤ | 0.026 |
| U22C | = | 1 |
| A24G U35G | ≤ | 0.026 |
| G61A G85U | = | 0.429 |
| G65C C81G | = | 1.06 |

Reference source for all entries: the RNAGym collection of RNA variant scans (doi:10.1101/gad.245936.114)
